Measured max response, negative = inhibition accompanies every entry in the list below.
target: Serine/threonine-protein kinase PLK1 (Homo sapiens); test: qHTS for Inhibitors of PLK1-PDB (polo-like kinase 1 - polo-box domain): Primary Screen; details: Plk1 PBD binding of FITC phosphopeptide, fluorescence polarization; note: series mostly up to about 57 µM; % is set by controls: 0 for no effect and ±100 for the full control effect; nearly all actives have a fitted effect of over 65% in size
About 10,000 (2.8%) of roughly 360,000 compounds were called active. Inconclusive results (about 4%) are left out. Shown is part of a subset that was picked to be rich in actives.

>  <molecule>
N#Cc1nc(COc2ccc(Cl)cc2)oc1N1CCCC1

>  <unit_of_measurement>
%

>  <max response, negative = inhibition>
-6.72

$$$$
>  <molecule>
N#Cc1ccc(/C=C2\CCn3c2nc2cc(C(=O)O)ccc2c3=O)cc1

>  <unit_of_measurement>
%

>  <max response, negative = inhibition>
-8.35

$$$$
>  <molecule>
CC1CCN(c2oc(-c3ccccc3F)nc2C#N)CC1

>  <unit_of_measurement>
%

>  <max response, negative = inhibition>
1.03

$$$$
>  <molecule>
CN(C)/C=C1\C=C(c2ccccc2)OC1=O

>  <unit_of_measurement>
%

>  <max response, negative = inhibition>
-6

$$$$
>  <molecule>
O=C(CN1CCN(c2ccccn2)CC1)Nc1ccc(Br)cc1

>  <unit_of_measurement>
%

>  <max response, negative = inhibition>
-15.1

$$$$
>  <molecule>
Cc1ccc(/C=C2\CCn3c2nc2cc(C(=O)O)ccc2c3=O)c(C)c1

>  <unit_of_measurement>
%

>  <max response, negative = inhibition>
-12.7

$$$$
>  <molecule>
COC(=O)c1ccc(/C=C2/C(=O)Oc3ccccc32)cc1

>  <unit_of_measurement>
%

>  <max response, negative = inhibition>
-0.125

$$$$
>  <molecule>
O=C(NN=Cc1ccccc1O)NN=Cc1ccccc1O

>  <unit_of_measurement>
%

>  <max response, negative = inhibition>
-11.7

$$$$
>  <molecule>
O=C(Cc1ccccc1Cl)N1CCN(c2ccccn2)CC1

>  <unit_of_measurement>
%

>  <max response, negative = inhibition>
-14.6

$$$$
>  <molecule>
CCN(CC)C(=O)C1CCCN(Cc2cccc(Cl)c2)C1 (stereo unspecified)

>  <unit_of_measurement>
%

>  <max response, negative = inhibition>
-16.8

$$$$
>  <molecule>
O=C(Nc1ccc(S(=O)(=O)N2CCOCC2)cc1)C1CCN(S(=O)(=O)c2ccc(Cl)cc2)CC1

>  <unit_of_measurement>
%

>  <max response, negative = inhibition>
3.5

$$$$
